Assign pIC50 to each entry below.
Target sequence: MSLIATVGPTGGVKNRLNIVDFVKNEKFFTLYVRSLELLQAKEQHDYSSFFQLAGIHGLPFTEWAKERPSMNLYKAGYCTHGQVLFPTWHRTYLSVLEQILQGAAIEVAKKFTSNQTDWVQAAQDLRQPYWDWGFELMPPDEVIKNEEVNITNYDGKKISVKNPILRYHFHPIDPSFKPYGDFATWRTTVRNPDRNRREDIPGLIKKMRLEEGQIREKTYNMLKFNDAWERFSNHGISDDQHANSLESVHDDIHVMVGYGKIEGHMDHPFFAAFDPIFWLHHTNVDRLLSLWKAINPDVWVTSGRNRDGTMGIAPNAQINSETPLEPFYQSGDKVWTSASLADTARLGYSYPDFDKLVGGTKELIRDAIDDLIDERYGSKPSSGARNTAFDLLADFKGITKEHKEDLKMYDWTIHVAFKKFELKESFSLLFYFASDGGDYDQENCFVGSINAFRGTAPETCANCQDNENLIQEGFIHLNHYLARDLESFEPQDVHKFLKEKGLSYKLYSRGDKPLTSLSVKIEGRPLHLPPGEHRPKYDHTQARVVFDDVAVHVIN
Just so you know, pIC50 here is -log10 of the concentration in molar units; reply with that number alone.

Input: Given the entry `NC(=S)N/N=C1\CCCC(=O)C1` , report its measured pIC50.
Output: 4.82

Input: So what's the measured pIC50 for this one? `NC(=S)NN=C1CCCC1`
Output: 6.77

Input: So what does the record say about pIC50 for `CC/C=N\NC(N)=S` ?
Output: 6.70

Input: Quick check: pIC50 of `NC(=S)NN=C1CCCCC1` ?
Output: 6.02

Input: So what does the record say about pIC50 for `C/C=C/C=N\NC(N)=S` ?
Output: 6.00

Input: Find the recorded pIC50 belonging to `CC(C)=C/C(C)=N\NC(N)=S` and report it.
Output: 4.94
